biological target: EP4 (Homo sapiens (Human), UniProt P35408); experiment: hEP4 cAMP assay (BT549 breast cancer cells, HTRF cAMP); type: cell-based; details: antagonistic activity; mean values where measured multiple times
Sequence (P35408 whole entry): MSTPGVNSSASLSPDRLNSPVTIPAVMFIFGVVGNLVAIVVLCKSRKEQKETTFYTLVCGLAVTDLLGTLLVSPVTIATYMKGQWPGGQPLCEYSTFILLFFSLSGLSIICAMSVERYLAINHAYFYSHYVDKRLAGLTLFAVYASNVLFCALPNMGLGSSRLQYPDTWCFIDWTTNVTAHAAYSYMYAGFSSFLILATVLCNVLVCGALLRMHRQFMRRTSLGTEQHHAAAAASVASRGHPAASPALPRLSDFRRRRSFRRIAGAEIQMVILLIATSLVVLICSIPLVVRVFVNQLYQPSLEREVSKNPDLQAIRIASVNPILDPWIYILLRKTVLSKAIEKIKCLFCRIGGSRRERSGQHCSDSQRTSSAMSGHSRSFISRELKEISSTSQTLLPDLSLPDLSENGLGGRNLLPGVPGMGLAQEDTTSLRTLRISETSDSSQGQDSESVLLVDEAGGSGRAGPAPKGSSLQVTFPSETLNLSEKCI
Below, each of the molecules is paired with its reported pIC50 value.
Give only the number. pIC50 is defined as minus log10 of concentration in molar units.

Use the examples below as a reference point.
[[record]]
molecule = "CNS(=O)(=O)c1ccc(-c2cc(NCCn3c(C)cc4c(OC)ccc(F)c43)ncn2)cc1C(F)(F)F [compound 591]"
measured_on = "EP4 (Homo sapiens (Human), UniProt P35408)"
reported_measurement = 6.53

[[record]]
molecule = "COc1cc(F)cc2c1cc(C)n2CCNc1cc(-c2ccc3ccncc3c2)ncn1 [compound 728]"
measured_on = "EP4 (Homo sapiens (Human), UniProt P35408)"
reported_measurement = 6.96

[[record]]
molecule = "Cc1cc2ccccc2n1CCNc1cc(-c2ccc(-c3nnn[nH]3)c(O)c2)ncn1 [Example 789]"
measured_on = "EP4 (Homo sapiens (Human), UniProt P35408)"
reported_measurement = 6.03


Request: Endpoint output: pIC50 of CCCc1cc(-c2cc(NCCn3c(C)cc4c(C)cc(F)cc43)ncn2)cc(Cl)c1C(=O)O [compound 412] . Value?
Response: 7.10

Request: Endpoint output: pIC50 of COc1cc(F)c(F)c2c1cc(C)n2CCNc1cc(-c2ccc(-c3noc(=O)[nH]3)cc2)ncn1 [compound 678] . Value?
Response: 7.40

Request: Endpoint output: pIC50 of CCOc1cc(-c2cc(NCCn3c(C)cc4c(OC)cc(F)cc43)ncn2)ccc1C(=O)O [compound 403] . Value?
Response: 6.89

Request: Endpoint output: pIC50 of Cc1cc(F)cc2c1cc(C)n2CCNc1cc(-c2ccc(-c3ncno3)cc2)ncn1 [compound 685] . Value?
Response: 6.96

Request: Endpoint output: pIC50 of Cc1ccc(F)c2c1cc(C)n2CCNc1cc(-c2ccc(C(=O)O)c(Oc3ccc(F)cc3)c2)ncn1 [compound 650] . Value?
Response: 6.35

* * *

target: PTGER2 (EP2) (Homo sapiens (Human)); test: hEP2 b-arrestin assay (PathHunter HEK 293 PTGER2 b-arrestin cells); type: cell-based; conditions: hEP2 b-arrestin assay (values without asterisk)
Sequence (P43116 whole entry): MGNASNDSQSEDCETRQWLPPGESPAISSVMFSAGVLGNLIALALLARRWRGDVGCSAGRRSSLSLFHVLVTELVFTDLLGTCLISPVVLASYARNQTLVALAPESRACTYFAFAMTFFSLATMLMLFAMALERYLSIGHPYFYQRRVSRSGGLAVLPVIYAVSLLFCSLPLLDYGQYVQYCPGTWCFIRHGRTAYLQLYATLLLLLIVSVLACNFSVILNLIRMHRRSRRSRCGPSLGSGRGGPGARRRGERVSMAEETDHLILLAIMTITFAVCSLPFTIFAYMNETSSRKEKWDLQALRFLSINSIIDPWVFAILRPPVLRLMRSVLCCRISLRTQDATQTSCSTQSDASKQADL
Below, each of the compounds is paired with its reported IC50 value.
Just the number please, in nM, no unit attached.

[[record]]
smiles_code = "COc1ccc(F)c2c1cc(C#N)n2CCNc1cc(-c2cc(C(F)(F)F)c(C(=O)O)s2)ncn1"
assay_readout = "IC50"
reported_measurement = 3

[[record]]
smiles_code = "CCOc1cc(-c2cc(NCCn3c(C#N)cc4c(C)c(F)c(F)cc43)ncn2)ccc1NCC(=O)O"
assay_readout = "IC50"
reported_measurement = 20

[[record]]
smiles_code = "COc1ccc(F)c2c1cc(C#N)n2CCNc1cc(-c2ccc(C(=O)O)cc2)ncn1"
assay_readout = "IC50"
reported_measurement = 36


Could you now consider this next compound?
Request: Could you share what IC50 was measured for COc1ccc(F)c2c1cc(C#N)n2CCNc1cc(-c2ccc(C3(OC)COC3)s2)ncn1 , tested on PTGER2 (EP2) (Homo sapiens (Human))?
Response: 421

* * *

target: PTRGER4 (EP4) (Homo sapiens (Human)); assay: hEP4 b-arrestin assay (PathHunter HEK 293 PTGER4 b-arrestin cells); format: cell-based; details: antagonistic activity on hEP4; mean where measured multiple times
Sequence (P35408 whole entry, looked up): as the sequence (P35408 whole entry) above
Exam item: assign criterion met to entries whose IC50 is below 400 nM and criterion not met to entries at or above 400 nM. Note that a value of exactly 400 nM receives criterion not met.

[[record]]
molecule = "CCOc1cc(-c2cc(NCCn3c(C)cc4c(C)cc(F)c(Cl)c43)ncn2)ccc1C(=O)O"
qualitative_label = "criterion not met"

[[record]]
molecule = "Cc1cc2c(F)ccc(F)c2n1CCNc1cc(-c2ccc(C(=O)O)c(C3CC3)c2)ncn1"
qualitative_label = "criterion not met"

[[record]]
molecule = "COc1cccc2c1cc(C)n2CCNc1cc(-c2ccc3c(c2)C(C)NC3=O)ncn1 (racemic)"
qualitative_label = "criterion not met"

[[record]]
molecule = "COc1cccc2c1cc(C)n2CCNc1cc(-c2ccc(S(N)(=O)=O)c(C(F)(F)F)c2)ncn1"
qualitative_label = "criterion not met"

[[record]]
molecule = "Cc1ccc(F)c2c1cc(C)n2CCNc1cc(-c2ccc(CO)c(F)c2)ncn1"
qualitative_label = "criterion met"

[[record]]
molecule = "Cc1ccc(F)c2c1cc(C)n2CCNc1cc(-c2ccc3ccncc3c2)ncn1"
qualitative_label = "criterion met"


# next molecule below
Request: Determine if COc1ccc(F)c2c1cc(C)n2CCNc1cc(-c2ccc3ccncc3c2)ncn1 shows IC50 strictly lower than 400 nM.
Response: criterion met

* * *

biological target: PTRGER4 (EP4) (Homo sapiens (Human)); experiment: hEP4 b-arrestin assay (PathHunter HEK 293 PTGER4 b-arrestin cells); format: cell-based; settings: antagonistic activity on hEP4; mean where measured multiple times
ASSAY READOUT: IC50 (nM)
Just the number please, in nM, no unit attached.

[[record]]
compound = "CSc1cc(-c2cc(NCCn3c(C)cc4c(C)c(F)cc(Cl)c43)ncn2)cc(Cl)c1C(=O)O [compound 331]"
measured_on = "PTRGER4 (EP4) (Homo sapiens (Human))"
assay_readout = "IC50"
unit_abbreviation = "nM"
reported_measurement = 829

[[record]]
compound = "Cc1ccc(F)c2c1cc(C)n2CCNc1cc(-c2ccc(-c3cc(N)no3)cc2)ncn1 [compound 189]"
measured_on = "PTRGER4 (EP4) (Homo sapiens (Human))"
assay_readout = "IC50"
unit_abbreviation = "nM"
reported_measurement = 106

[[record]]
compound = "CCNc1cc(-c2cc(NCCn3c(C)cc4c(OC)ccc(F)c43)ncn2)cc(Cl)c1C(=O)O [compound 381]"
measured_on = "PTRGER4 (EP4) (Homo sapiens (Human))"
assay_readout = "IC50"
unit_abbreviation = "nM"
reported_measurement = 84

[[record]]
compound = "Cc1nnc(-c2ccc(-c3cc(NCCn4c(C)cc5c(C)ccc(F)c54)ncn3)cc2F)o1 [compound 306]"
measured_on = "PTRGER4 (EP4) (Homo sapiens (Human))"
assay_readout = "IC50"
unit_abbreviation = "nM"
reported_measurement = 207

[[record]]
compound = "CCN1Cc2cc(-c3cc(NCCn4c(C)cc5c(OC)ccc(F)c54)ncn3)ccc2C1=O [compound 320]"
measured_on = "PTRGER4 (EP4) (Homo sapiens (Human))"
assay_readout = "IC50"
unit_abbreviation = "nM"
reported_measurement = 345


Request: Endpoint output: IC50 of CCOc1cc(-c2cc(NCCn3c(C)cc4c(C)ccc(F)c43)ncn2)ccc1C(=O)O [Example 158] . Value?
Response: 163

Request: Endpoint output: IC50 of Cc1ccc(F)c2c1cc(C)n2CCNc1cc(-c2ccc(C(=O)O)c(CC(C)C)c2)ncn1 [compound 336] . Value?
Response: 199

* * *

Below, each of the molecules is paired with its reported IC50 value.
target: EP4 (Homo sapiens (Human)); test: hEP4 cAMP assay (BT549 breast cancer cells, HTRF cAMP); format: cell-based; settings: antagonistic activity; mean values where measured multiple times

[[record]]
molecule = "CCNc1cc(-c2cc(NCCn3c(C)cc4c(C#N)ccc(F)c43)ncn2)ccc1C(=O)O"
reported_measurement = "240 nM"


Could you now consider this next molecule?
Request: Could you share what IC50 was measured for CCOc1cc(-c2cc(NCCn3c(C)cc4c(OC)ccc(Cl)c43)ncn2)cc(Cl)c1C(=O)O , tested on EP4 (Homo sapiens (Human))?
Response: 219 nM

* * *

molecular target: PTRGER4 (EP4) (Homo sapiens (Human)); test: hEP4 b-arrestin assay (PathHunter HEK 293 PTGER4 b-arrestin cells); type: cell-based; conditions: antagonistic activity on hEP4; mean where measured multiple times
ASSAY READOUT: pIC50
Give only the number. pIC50 is defined as minus log10 of concentration in molar units.

Use the examples below as a reference point.
[[record]]
molecule = "COc1ccc(F)c2c1cc(C)n2CCNc1cc(-c2ccc3[nH]c(=O)[nH]c3c2)ncn1 [compound 115]"
assay_readout = "pIC50"
reported_measurement = 6.13

[[record]]
molecule = "CCOc1cc(-c2cc(NCCn3c(C)cc4c(OC)ccc(F)c43)ncn2)ccc1C(=O)O"
assay_readout = "pIC50"
reported_measurement = 6.65


Request: Endpoint output: pIC50 of CCNc1cc(-c2cc(NCCn3c(C)cc4cc(F)cc(F)c43)ncn2)ccc1C(=O)O . Value?
Response: 6.48

Request: Endpoint output: pIC50 of COc1ccc(F)c2c1cc(C)n2CCNc1cc(-c2ccc(C(N)=O)cc2)ncn1 . Value?
Response: 6.31

Request: Endpoint output: pIC50 of Cc1ccc(F)c2c1cc(C)n2CCNc1cc(-c2ccc(-c3ncno3)cc2)ncn1 . Value?
Response: 6.71

# credit: patent US12011444B2
